ASSAY SYSTEM: SOS1 catalytic domain (residues 564-1049) (Homo sapiens)
Sequence (Q07889 564-1049): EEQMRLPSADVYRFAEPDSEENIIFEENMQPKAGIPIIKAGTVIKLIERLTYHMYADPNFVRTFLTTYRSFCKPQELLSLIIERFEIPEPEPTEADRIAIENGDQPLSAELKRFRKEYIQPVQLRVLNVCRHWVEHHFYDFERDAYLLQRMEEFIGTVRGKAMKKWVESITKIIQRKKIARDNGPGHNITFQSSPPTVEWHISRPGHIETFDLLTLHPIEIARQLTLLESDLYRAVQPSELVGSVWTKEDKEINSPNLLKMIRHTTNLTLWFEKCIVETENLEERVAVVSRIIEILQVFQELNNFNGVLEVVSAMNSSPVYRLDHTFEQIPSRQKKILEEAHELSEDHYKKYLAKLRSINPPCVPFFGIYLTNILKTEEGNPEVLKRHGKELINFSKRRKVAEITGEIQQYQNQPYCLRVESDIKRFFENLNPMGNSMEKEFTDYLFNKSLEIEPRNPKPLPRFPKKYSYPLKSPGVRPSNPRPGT
pKd: −log10 of the molar value. Structures can show the parent of a compound that is named as a salt.
ASSAY METRIC: pKd

• C[C@@H](Nc1ncnc2sc(C(=O)N3CCN(C4COC4)CC3)cc12)c1cccc(C(F)F)c1F = ≥ 6.40
• C[C@@H](Nc1nc(Cl)cn2nc(C(=O)N3CCOCC3)cc12)c1cc(N)cc(C(F)(F)F)c1 = < 6.40
• CNCc1cc2c(N[C@H](C)c3cc(N)cc(C(F)(F)F)c3)nc(C)nn2c1 = < 6.40
• C[C@@H](Nc1ncnc2sc(C(=O)N3CCOCC3)cc12)c1cc(N)cc(C(F)(F)F)c1 = ≥ 6.40
• C[C@@H](Nc1nccc2nc(C(=O)N3CC4(C3)CN(C3COC3)C4)cn12)c1cccc(C(F)F)c1F = ≥ 6.40

Prompt: For the compound shown here, Cc1nc(N[C@H](C)c2cc(N)cc(C(F)(F)F)c2)c2cc(CN3CCOCC3)cn2n1 , give the reported pKd.
Response: < 6.40

Prompt: Note, next up: Cc1cn2nc(C(=O)N3CCN(C)CC3)cc2c(N[C@H](C)c2cc(N)cc(C(F)(F)F)c2)n1
Response: ≥ 6.40

Prompt: Note, next up: C[C@@H](Nc1nccc2nc(C(=O)N3CCNCC3)cn12)c1cccc(C(F)F)c1F [Example 85, hydrochloride]
Response: ≥ 6.40

====

Catalogue of pIC50 readings, one per entry.
ASSAY SYSTEM: SOS1 nucleotide exchange of KRAS (catalytic domain of SOS1, residues 564-1049; wild-type KRAS) (Homo sapiens, UniProt Q07889)
Construct: tagless catalytic domain of SOS1 (residues 564-1049)
EXPERIMENT DESCRIPTION: Mode of Action Assay: Inhibition of SOS1 Nucleotide Exchange Activity (TR-FRET)
SETUP CONDITIONS: TR-FRET signal
pIC50: −log10 of the molar value.

Would you please look over these solved cases?
* C[C@@H](Nc1nc(Cl)nc2cc(C(=O)N3CCOCC3)[nH]c12)c1cc(N)cc(C(F)(F)F)c1 | < 6.00
* C[C@@H](Nc1nccc2nc(C(=O)N3CC4(CN(CC(F)F)C4)C3)cn12)c1cccc(C(F)F)c1F | > 6.00

Prompt: For the molecule shown here, C[C@@H](Nc1nccc2nc(C(=O)N3CC4(C3)CN(C3COC3)C4)cn12)c1cccc(C(F)F)c1F , give the reported pIC50.
Response: > 6.00
